# System: Caco-2 colorectal adenocarcinoma cell line
# protocol_summary: MTT cell viability assay, Caco-2
# Format: cell-based, human
# test_settings: 72 h of incubation, MTT, protected from light; listed as 4
measured_quantity: IC50 (nM)

# smiles_entry, quantitative_result
measured = [
    ("CN1C(=Cc2sc3ccccc3[n+]2C)Sc2ccccc21.[I-]", 400),
]

---

# protocol_summary: MTT cell viability assay, NHDF
# Format: cell-based, human
# test_settings: human, normal human dermal fibroblasts (NHDF), single concentration of 10 µM, 72 h, mean ± SD; read-out: cell viability percentage in relation with control, NHDF
Labelling: viability at 72 h, 10 µM reported below 2% becomes Satisfied; at or above becomes Not satisfied.

# smiles_entry, assigned_class
measured = [
    ("CCN1C(=CC=Cc2[se]c3ccccc3[n+]2CC)[Se]c2ccccc21.[I-]", "Not satisfied"),
    ("CCCCCCCCCCN1C(=Cc2sc3ccccc3[n+]2CCCCCCCCCC)Sc2ccccc21.[I-]", "Satisfied"),
    ("CC1(C)C(=CC=C2CCCC(C=CC3=[N+](CCCCS(=O)(=O)O)c4ccccc4C3(C)C)=C2Cl)N(CCCCS(=O)(=O)O)c2ccccc21", "Not satisfied"),
    ("CCCCCN1C(=Cc2sc3ccccc3[n+]2CCCCC)Sc2ccccc21.[I-]", "Satisfied"),
    ("CCN1C(=Cc2sc3ccccc3[n+]2CC)Sc2ccccc21", "Not satisfied"),
    ("CN1/C(=C/c2sc3ccccc3[n+]2C)Sc2ccccc21", "Not satisfied"),
    ("COC(=O)CN1C(=Cc2sc3ccccc3[n+]2CC(=O)OC)Sc2ccccc21.[Br-]", "Not satisfied"),
]

---

# System: MCF-7 breast adenocarcinoma cell line
# protocol_summary: MTT cell viability assay, MCF-7
# Assay type: cell-based, human
# test_settings: Homo sapiens, MCF7; 72 h of incubation, MTT, protected from light
pIC50: −log10 of the molar value.
Listing of entries alongside the reported pIC50.

# molecule, pIC50
rows = [
    ("CN1C(=Cc2oc3ccccc3[n+]2C)Oc2ccccc21.Cc1ccc(S(=O)(=O)[O-])cc1", 5.34),
    ("O=c1[nH]cc(F)c(=O)[nH]1 [Dye 5-FU, 5-fluorouracil, reference compound]", 5.91),
]

---

Parameter: SI Caco-2 (selectivity index, cancer versus NHDF). Scope: all listed entries.
# Tested on: Caco-2 colorectal adenocarcinoma cell line
# protocol_summary: MTT cell viability assay, Caco-2
# Assay type: cell-based, human
# test_settings: Caco-2 versus NHDF, 72 h
measured_quantity: SI Caco-2 (selectivity index, cancer versus NHDF)

# smiles_entry, quantitative_result
records = [
    ("CN1C(=Cc2sc3ccccc3[n+]2C)Sc2ccccc21.[Br-]", 0.8),
    ("CN1C(=Cc2sc3ccccc3[n+]2C)Sc2ccccc21.Cc1ccc(S(=O)(=O)[O-])cc1", 2.4),
    ("CCCCCN1C(=Cc2sc3ccccc3[n+]2CCCCC)Sc2ccccc21.[I-]", 0.7),
    ("CN1C(=Cc2sc3ccccc3[n+]2C)Sc2ccccc21.[I-]", 1.8),
    ("CN1/C(=C/c2sc3ccccc3[n+]2C)Sc2ccccc21", 1.2),
]

---

# protocol_summary: MTT cell viability assay, NHDF
# Type: cell-based, human
# test_settings: human, normal human dermal fibroblasts (NHDF), single concentration of 10 µM, 72 h, mean ± SD; read-out: cell viability percentage in relation with control, NHDF
Parameter viability at 72 h, 10 µM: see the listing below.

# molecule, viability at 72 h, 10 µM (%)
rows = [
    ("c1ccc2sc(Cc3nc4ccccc4s3)nc2c1 [bisbenzothiazole 1, bis(benzo[d]thiazol-2-yl)methane]", 31),
    ("CCCCCN1C(=CC=C2CCCC(C=Cc3sc4ccccc4[n+]3CCCCC)=C2Cl)Sc2ccccc21.[I-]", 2.26),
    ("CN1C(=Cc2ccc3ccccc3[n+]2C)C=Cc2ccccc21.[I-]", 8.37),
    ("CCN1C(=Cc2sc3ccccc3[n+]2CC)Sc2ccccc21.[O-][Cl+3]([O-])([O-])[O-]", 3.34),
    ("CN1C(=Cc2oc3ccccc3[n+]2C)Oc2ccccc21.Cc1ccc(S(=O)(=O)[O-])cc1", 41),
    ("CCCCCCCCCCN1C(=CC=C2CCCC(C=Cc3[se]c4ccccc4[n+]3CCCCCCCCCC)=C2Cl)[Se]c2ccccc21.[I-]", 36.6),
    ("O=c1[nH]cc(F)c(=O)[nH]1 [Dye 5-FU, 5-fluorouracil, reference compound]", 12.7),
    ("CCN1C(=CC=Cc2oc3ccccc3[n+]2CC)Oc2ccccc21", 3.72),
]
